testDescription: label from the status in PepcDB records
recordedEndpoint: protein production

seqString: RNGLDLTTYEGQVEGVEIASDPNLKIVGMMTHFPNEGLDEIRRKVDRFKVETKWLMDSAGLKRKDITLHVANSYITLNLPEAHLDMVRPGGMLYGDYPATLPYERIVSFKTRIASLHFFPAGSTIGYGSTKVLERDSILANLPIGYSDGFARSLSNKADVLINGQRARVMGKASMNTTMVDVTDIIGVQANDEVVVFGRQGFEEITAEETEEKSGRILPEHYTIWGATNPRVYR
recordedEndpoint: protein production
result: failed
//
seqString: PIIFVPGIMGSRLKFAKGKKQGTRAWDPDSSGFMFLNYGRFDVSAKKKKALLVGPEFDPDYLEVDTNNPKLDKSFLRRYPRADKRGWGGVMWGSYGPILRALHDHQWEEPVGHCFEFPVHAFGYNWTASNMEAGRKLKEYIGATIDHYAKGLRDEAGRPLERLCTRVILVTHSMGGLVARSACVLHGAAEKVLGVVHGVQPATGSPAAYWRMK
recordedEndpoint: protein production
result: failed

###

testDescription: label from the status in PepcDB records

seqString: MQDSRPHPHDWNVSTDEAKRIQRRLASEVTERALPDGGETVAGIDVSVRDDTAQAAVSVLRLPELDVVDEATHRCEVPFPYVPGLLSFREMPAVLPALERLHSTPDVFVTDSHGAAHPRRFGLACHLGVLLDAPAIGVAKSILVGAPQGELGPEKGSRVPLVDDGETVGTVLRTRTDVNPVYVSVGHRCTLDGAADLMLDCSPRYKIPEPTRQAHKLSRAEGLEHHHHHH
protein production: not failed
--
seqString: MSSQLDECNRLLWEKCPVGLVLWRKNGALIDANSTYAAILGSTVPETLNFNYWQITPENYLASERTILEQLEQTGCHQAYEKEYLHQDGHLVPVKVSTVIIEKDGEKLMWSSVEDIS
protein production: not failed
--
seqString: DEETKAFEALLSNIVKPVASDIQARTVVLTWSPPSSLINGETDESSVPELYGYEVLISSTGKDGKYKSVYVGEETNITLNDLKPAMDYHAKVQAEYNSIKGTPSEAEIFTTLSCEPDIPNPPRI
protein production: not failed
--
seqString: MAKNKLLRMDNVSIVVESLDNAISFFEEIGLNLEGRANVEGEWAGRVTGLGSQCVEIAMMVTPDGHSRIELSRFLTPPTIADHRTAPVNALGYLRVMFTVEDIDEMVSRLTKHGAELVGEVVQYENSYRLCYIRGVEGILIGLAEELGNK
protein production: not failed
--
seqString: MTKSQQKVSSIEKLSNQEGIISALAFDQRGALKRMMAEHQSETPTVEQIEQLKVLVSEELTQYASSILLDPEYGLPASDARNNDCGLLLAYEKTGYDVNAKGRLPDCLVEWSAKRLKEQGANAVKFLLYYDVDDTEEINIQKKAYIERIGSECVAEDIPFFLEVLTYDDNIPDNKSAEFAKVKPRKVNEAMKLFSEDCFNVDVLKVEVPVNMNFVEGFSEGEVVYTKEEAAQHFRDQDAATHLPYIYLSAGVSAELFQDTLKFAHDSGAQFNGVLCGRATWSGAVKVYIEEGEQAAREWLRTVGFKNIDDLNTVLKTTATSWKNK
protein production: not failed
--
seqString: MKRPRGKPLFKPVKERNPVAVGVAGLLVLTLVALLVYNVDRLPFGGGTTYSADFSESAGLDEGDEVRIAGVKVGQVTGVALDGAKVKVSFEVEDAWIGDRTTAAIAIKTVLGDKYLALDPLGSGRQDPGARIPLARTTSPYDVTQAFQDLSGTVDDIDTGRLAESFETISDTFKDSPPHVRKAATGLSDLSKSISKRDAKLSELLKGSARFTKTLENNKSSFETLIEDGGPLLGELRDRRTAINALLKGSQDLGTELGGLVKDNEKQLGPTLKALGRVTSVLEKNNTRLGETLALVGPYYRLVGNTLGNGRWFDSYLCGVVPRDYLPETSQPSTGCLPPKQPAAAQGSGARLEHHHHHH
protein production: failed
--
seqString: MVKWYKTYLEVYGKSFDEISDDSIRKVKRQLKERQNDSPLVSVVLIAHNEERHLISCIWSLSENHCHFPIEIIAVNNNSTDKTEEILKSLGVTYYNETKKGPGYARQCGLDHAKGKYHICIDADTLYPPHYIETHVKYLMNPKVACTFSLWSFMVDERHSRFGLWCYEGLRDIYLRLQAIQRPELCVRGMAFSFNTEIGRRFGFRTDIIRGEDGSLALAMKPYGKIVFITSRKARVLTSNGTLNSEGSLIDNIWIRVIKALKEITGLFIKKTAYKDKDSNLIKLEHHHHHH
protein production: failed
